# experimental.system: Cytochrome P450 1A2 (Homo sapiens) (UniProt P05177)
# Sequence (P05177 whole entry, looked up): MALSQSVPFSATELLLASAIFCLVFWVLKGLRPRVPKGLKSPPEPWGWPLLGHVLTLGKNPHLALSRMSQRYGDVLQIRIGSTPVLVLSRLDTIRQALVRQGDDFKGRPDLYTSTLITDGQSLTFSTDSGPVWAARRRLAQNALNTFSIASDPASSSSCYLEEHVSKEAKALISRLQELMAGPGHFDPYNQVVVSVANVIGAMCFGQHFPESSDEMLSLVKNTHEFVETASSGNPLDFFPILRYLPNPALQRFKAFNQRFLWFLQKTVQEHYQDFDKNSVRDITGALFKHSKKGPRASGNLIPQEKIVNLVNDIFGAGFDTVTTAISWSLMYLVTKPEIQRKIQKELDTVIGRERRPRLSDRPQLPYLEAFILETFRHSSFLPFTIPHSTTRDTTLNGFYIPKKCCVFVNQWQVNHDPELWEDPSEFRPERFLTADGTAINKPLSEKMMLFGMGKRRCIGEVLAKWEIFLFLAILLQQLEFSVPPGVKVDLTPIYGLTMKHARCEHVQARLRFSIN
# experiment: p450-cyp1a2 (AID 410)
# settings: recombinant CYP1A2, luciferin-ME demethylation, luminescence; series mostly up to 11.4 µM
Inconclusive results are not listed. Activity calls are given as the source filed them. The call rests on the fitted dose curve.
Classes used: TRUE (active), FALSE (inactive)

>  <compound>
O=C(O)c1cc(-c2ccc3cc4c(cc3c2)OCO4)nc2ccccc12

>  <experimental.system>
Cytochrome P450 1A2 (Homo sapiens) (UniProt P05177)

>  <assigned.category>
TRUE

$$$$
>  <compound>
CN(C)c1ccc(C2N([C@H](C#N)c3ccc(N(C)C)cc3)CCCN2[C@@H](C#N)c2ccc(N(C)C)cc2)cc1 (stereo not given in full)

>  <experimental.system>
Cytochrome P450 1A2 (Homo sapiens) (UniProt P05177)

>  <assigned.category>
TRUE

$$$$
>  <compound>
CC1=C/C(=N/O)C([C@H]2C=C(C)CC(C)(C)[C@@H]2O)C(C)(C)C1 (stereo not given in full)

>  <experimental.system>
Cytochrome P450 1A2 (Homo sapiens) (UniProt P05177)

>  <assigned.category>
FALSE

$$$$
>  <compound>
O=C(O)C[n+]1ccccc1

>  <experimental.system>
Cytochrome P450 1A2 (Homo sapiens) (UniProt P05177)

>  <assigned.category>
FALSE

$$$$
>  <compound>
c1ccc([C@H](c2cccc3c2ccc2ccccc23)[C@H](c2ccccc2)c2cccc3c2ccc2ccccc23)cc1

>  <experimental.system>
Cytochrome P450 1A2 (Homo sapiens) (UniProt P05177)

>  <assigned.category>
FALSE

$$$$
>  <compound>
CCC1=C(C[C@H]2NCCc3ccccc32)C[C@@H]2c3cc(OC)c(OC)cc3CCN2C1

>  <experimental.system>
Cytochrome P450 1A2 (Homo sapiens) (UniProt P05177)

>  <assigned.category>
FALSE

$$$$
>  <compound>
CSc1nc(N)c2ncn([C@@H]3O[C@@H](COP(=O)(O)OP(=O)(O)O)[C@@H](O)[C@H]3O)c2n1

>  <experimental.system>
Cytochrome P450 1A2 (Homo sapiens) (UniProt P05177)

>  <assigned.category>
FALSE

$$$$
>  <compound>
CC(C)(CC(=O)Nc1ccccc1)C(=O)O

>  <experimental.system>
Cytochrome P450 1A2 (Homo sapiens) (UniProt P05177)

>  <assigned.category>
FALSE

$$$$
>  <compound>
FC(F)(F)c1cccc(-c2nc3nc(Cl)c(Cl)nc3[nH]2)c1

>  <experimental.system>
Cytochrome P450 1A2 (Homo sapiens) (UniProt P05177)

>  <assigned.category>
TRUE

$$$$
>  <compound>
O=C(O)CCC/C=C\C[C@H]1[C@@H](/C=C\[C@@H](O)C2Cc3ccccc3C2)[C@H](F)C[C@H]1O

>  <experimental.system>
Cytochrome P450 1A2 (Homo sapiens) (UniProt P05177)

>  <assigned.category>
FALSE

$$$$
